target: UniProtKB P39877; assay: Inhibition of human group 5 Ca2+-dependent secretory phospholipase A2 at 0.091 mole fraction by modified Dole assay
Sequence (P39877 whole entry): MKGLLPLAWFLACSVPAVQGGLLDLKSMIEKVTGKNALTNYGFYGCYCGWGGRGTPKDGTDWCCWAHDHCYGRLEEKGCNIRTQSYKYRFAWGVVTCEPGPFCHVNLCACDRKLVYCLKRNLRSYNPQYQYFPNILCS
MEASURE NAME: inhibition (%)

molecule=CCCCCCCCCCCCCCC(=O)C(=O)N[C@@H](CCCC)CCC(=O)OC measure_name=inhibition quantity_unit=% reported_measurement=86
molecule=CCCCCCCCCCCCCCC(=O)C(=O)NCCCCOCC measure_name=inhibition quantity_unit=% reported_measurement=64
molecule=CCCCCCCCCCCCCCC(=O)C(=O)NCCC(=O)OC(C)(C)C measure_name=inhibition quantity_unit=% reported_measurement=72
molecule=CCCCCCCCCCCCCCC(=O)C(=O)NCCCCC(=O)OCC measure_name=inhibition quantity_unit=% reported_measurement=47
molecule=C=CCOC(=O)CCCNC(=O)C(=O)CCCCCCCCCCCCCC measure_name=inhibition quantity_unit=% reported_measurement=38
molecule=CCCCCCCCCCCCCCC(=O)C(=O)N[C@H](/C=C/C=C/C(=O)OCC)CCCC measure_name=inhibition quantity_unit=% reported_measurement=52
molecule=CCCCCCCCCCCCCCC(=O)C(=O)NCC(=O)OCC measure_name=inhibition quantity_unit=% reported_measurement=62
molecule=CCCCCCCCCCCCCCC(=O)C(=O)NCCCCC(=O)OC(C)(C)C measure_name=inhibition quantity_unit=% reported_measurement=72

P = CCCCCCCCCCCCCCC(=O)C(=O)N[C@@H](C)CCC(=O)OC(C)(C)C
Q = CCCCCCCCCCCCCCC(=O)C(=O)NCC(=O)OC
[ask] P or Q : whose inhibition is greater? Answer by quoting the chosen item's label.
[reply] P
